# TARGET_UNDER_TEST: TSLP, Q969D9
# PROCEDURE_DETAILS: Kd (SPR)
Measured Kd, listed per entry.
Unit nM implied. Number only.

Recorded results for 5 binders are shown here.
BINDER: unnamed (protein) chain 1: QMQLVESGGGVVQPGRSLRLSCAASGFTFSTYAMHWVRQAPGKGLEWVAVIWYDGSNKHYADSVKGRFTITRDNSKNTLNLQMNSLRAEDTAVYYCARSPRYDWYYEAFDVWGQGTMVTVSS chain 2: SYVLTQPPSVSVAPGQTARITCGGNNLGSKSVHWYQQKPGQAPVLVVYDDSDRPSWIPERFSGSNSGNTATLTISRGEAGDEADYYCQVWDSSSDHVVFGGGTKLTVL
VALUE_UNIT: nM
REPORTED_RESULT: 96.3
//
BINDER: unnamed (protein) chain 1: QMQLVESGGGVVQPGRSLRLSCAASGFTFSTFAMHWVRQAPGKGLEWVAVIWYDGSNKHYADSVKGRFTITRDNSKNTLNLQMNSLRAEDTAVYYCARAPRYDDDYEAFDVWGQGTMVTVSS chain 2: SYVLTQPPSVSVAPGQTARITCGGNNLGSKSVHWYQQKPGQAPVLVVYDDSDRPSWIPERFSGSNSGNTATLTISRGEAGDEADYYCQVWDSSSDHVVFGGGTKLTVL
VALUE_UNIT: nM
REPORTED_RESULT: 112
//
BINDER: unnamed (protein) chain 1: QMQLVESGGGVVQPGRSLRLSCAASGFTFSTFAMHWVRQAPGKGLEWVAVIWYDGSNKHYADSVKGRFTITRDNSKNTLNLQMNSLRAEDTAVYYCARAPRYDDRYEAFDVWGQGTMVTVSS chain 2: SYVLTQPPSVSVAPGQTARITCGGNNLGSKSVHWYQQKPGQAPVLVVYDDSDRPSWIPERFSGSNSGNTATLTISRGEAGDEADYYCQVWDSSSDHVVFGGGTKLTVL
VALUE_UNIT: nM
REPORTED_RESULT: 490
//
BINDER: unnamed (protein) chain 1: QMQLVESGGGVVQPGRSLRLSCAASGFTFRTYGMHWVRQAPGKGLEWVAVIWYDGSNKHYADSVKGRFTITRDNSKNTLNLQMNSLRAEDTAVYYCARAPRYDYYLEAFDVWGQGTMVTVSS chain 2: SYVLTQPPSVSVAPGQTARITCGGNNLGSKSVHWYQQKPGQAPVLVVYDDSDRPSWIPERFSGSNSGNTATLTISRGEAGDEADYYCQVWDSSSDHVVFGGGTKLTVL
VALUE_UNIT: nM
REPORTED_RESULT: 238
//
BINDER: unnamed (protein) chain 1: QMQLVESGGGVVQPGRSLRLSCAASGFTFSTYAMHWVRQAPGKGLEWVAVIWYDGSNKHYADSVKGRFTITRDNSKNTLNLQMNSLRAEDTAVYYCARAPRYDEDYEAFDVWGQGTMVTVSS chain 2: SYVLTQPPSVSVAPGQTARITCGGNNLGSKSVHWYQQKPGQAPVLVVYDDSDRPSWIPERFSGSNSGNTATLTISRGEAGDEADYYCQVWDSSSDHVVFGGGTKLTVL
VALUE_UNIT: nM
REPORTED_RESULT: 184

Tell me Kd reported for unnamed (protein) chain 1: QMQLVESGGGVVQPGRSLRLSCAASGFTFRTYGMHWVRQAPGKGLEWVAVIWYDGSNKHYADSVKGRFTITRDNSKNTLNLQMNSLRAEDTAVYYCARDESTGDYYYYMDVWGQGTMVTVSS chain 2: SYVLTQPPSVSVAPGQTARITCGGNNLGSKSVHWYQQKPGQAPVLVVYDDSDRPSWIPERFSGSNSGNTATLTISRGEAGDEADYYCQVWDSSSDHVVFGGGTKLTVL
229

Tell me Kd reported for unnamed (protein) chain 1: QMQLVESGGGVVQPGRSLRLSCAASGFTFRTYGMHWVRQAPGKGLEWVAVIWYDGSNKHYADSVKGRFTITRDNSKNTLNLQMNSLRAEDTAVYYCARAPRYDDYLEAFDVWGQGTMVTVSS chain 2: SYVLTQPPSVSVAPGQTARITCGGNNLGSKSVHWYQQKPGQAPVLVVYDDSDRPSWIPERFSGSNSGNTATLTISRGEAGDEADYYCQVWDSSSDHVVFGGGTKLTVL
99.9
